Every entry's value here was drawn from patent US11639446B2.

- ASSAY OVERVIEW: Water solubility of catalyst
PARAMETER MEASURED: Water solubility of catalyst

Consider the reported Water solubility of catalyst for these molecules:
>>> assay_result("CCCC[n+]1ccn(C)c1C(=O)[O-] [modified imidazole B]")
"Soluble"
>>> assay_result("Cn1cc[n+](C)c1/C([O-])=N\\c1ccccc1 [modified imidazole C]")
"Insoluble"
>>> assay_result("CCCCCCCCn1cc[n+](CCCCCCCC)c1/C([O-])=N\\c1ccccc1 [modified imidazole F]")
"Insoluble"
>>> assay_result("CCCCCCC[CH2][Sn](=[O])[CH2]CCCCCCC [Dioctyltin oxide, reference compound]")
"Insoluble"
>>> assay_result("Cn1cc[n+](C)c1.[Cl-] [reference compound]")
"Soluble"
>>> assay_result("CCCCCCCC[n+]1ccn(C)c1/C([O-])=N\\c1ccccc1 [modified imidazole E]")
"Insoluble"

Proceeding to the next molecule to report its Water solubility of catalyst.
What does the record list as Water solubility of catalyst for Cn1cc[n+](C)c1C(=O)[O-] [modified imidazole A, 1,3-dimethylimidazolium-2-carboxylate] ? Soluble
